Tested on: mice
Experiment: SmartCube in vivo neuropharmacological behavioral assay
Details: SmartCube, i.p. 15 min before test, result at the MED
Structures can show the parent of a compound that is named as a salt.
QUANTITY_MEASURED: AX: anxiolytic (percent probability)

COMPOUND: c1ccc2c(c1)C1CCCC2N1C1CCCCC1 [Compound 13, hydrochloride]
QUANTITY_MEASURED: AX: anxiolytic (percent probability)
REPORTED_MEASUREMENT: ++ (5% ≤ X < 25%)

COMPOUND: Fc1cc2c(cc1F)C1CCCC2N1 [Compound 40, hydrochloride]
QUANTITY_MEASURED: AX: anxiolytic (percent probability)
REPORTED_MEASUREMENT: ++ (5% ≤ X < 25%)

COMPOUND: CCC(C)N1C2CCCC1c1ccccc12 (centres unmarked)
QUANTITY_MEASURED: AX: anxiolytic (percent probability)
REPORTED_MEASUREMENT: ++ (5% ≤ X < 25%)

COMPOUND: c1ccc2c(c1)C1CCCC2N1C1CCOC1 (centres unmarked) [Compound 9, hydrochloride]
QUANTITY_MEASURED: AX: anxiolytic (percent probability)
REPORTED_MEASUREMENT: ++ (5% ≤ X < 25%)

COMPOUND: CC(C)N1C2CCCC1c1ccccc12
QUANTITY_MEASURED: AX: anxiolytic (percent probability)
REPORTED_MEASUREMENT: + (LOQ ≤ X < 5%)

COMPOUND: CN1C2CCCC1c1ccccc12 [Compound 3, hydrochloride]
QUANTITY_MEASURED: AX: anxiolytic (percent probability)
REPORTED_MEASUREMENT: ++ (5% ≤ X < 25%)

COMPOUND: CC([C@H](C)F)N1C2CCCC1c1ccccc12 (stereo in doubt) [Compound 24, hydrochloride]
QUANTITY_MEASURED: AX: anxiolytic (percent probability)
REPORTED_MEASUREMENT: + (LOQ ≤ X < 5%)

COMPOUND: C[C@H]1CC[C@@H]2N[C@H]1c1ccccc12 (stereo in doubt) [Compound 32, hydrochloride]
QUANTITY_MEASURED: AX: anxiolytic (percent probability)
REPORTED_MEASUREMENT: + (LOQ ≤ X < 5%)

COMPOUND: CC(C)N1C2CC[C@H](C)C1c1ccccc12 (stereo in doubt) [Compound 33, hydrochloride]
QUANTITY_MEASURED: AX: anxiolytic (percent probability)
REPORTED_MEASUREMENT: + (LOQ ≤ X < 5%)

COMPOUND: CCCN1C2CCCC1c1ccccc12 [Compound 7, hydrochloride]
QUANTITY_MEASURED: AX: anxiolytic (percent probability)
REPORTED_MEASUREMENT: ++ (5% ≤ X < 25%)
